The measured values listed here are drawn from patent US20100310591A1.

target: murine class II MHC allele E^k on CH27 B cell lymphoma antigen presenting cells (murine); assay: cell-based or functional assay
ASSAY_METRIC: T cell proliferative response (HT-2 [3H]TdR uptake) at 0.18 nM

BINDER: Ac-IAYLKQATAK-NH2 [Hybrid 1, Ac-IAYLKQATAK-NH2 (antigenic epitope PGCC 95-104 without Ii-Key)]
MEASURED: 0 thousands of cpm
